Values were extracted from patent US20110236390A1.

# Assay System: T1, cynomolgus IL-17A (cynomolgus, UniProt Q16552 24-155 (human entry), limits assumed)
# T1 chain: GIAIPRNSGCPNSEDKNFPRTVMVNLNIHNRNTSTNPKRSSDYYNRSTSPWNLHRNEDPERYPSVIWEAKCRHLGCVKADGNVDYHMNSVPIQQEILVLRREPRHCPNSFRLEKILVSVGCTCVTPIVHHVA
# Assay Name: cell-based or functional assay
Measurement Label: IL-8 production (NHDF), IC50 (nM)
Output spec: scalar in nM, unitless text.

Reported IL-8 production (NHDF), IC50, binder mAb3584 (antibody, human IgG1, lambda, V domains shown, Framework-engineered mAb; also called engineered form of MOR8299) VH: QVQLQQSGPGLVKPSQTLSLTCAISGDSVSSSSAAWGWIRQSPSRGLEWLGRISYRSKWYNDYAVSVKSRITINPDTSKNQFSLQLNSVTPEDTAVYYCAREVDSIYYSYFDIWGQGTLVTVSS VL: EIVLTQSPATLSLSPGERATLSCRASQNVWAFYLAWYQQKPGQAPRLLIYGASNRATGIPARFSGSGSGTDFTLTISSLEPEDFAVYYCQQYRSTLSLTFGQGTKVEIKG : ____
1.25

Sample mAb3077 (antibody, human IgG1, lambda, V domains shown, Framework-engineered mAb; also called engineered form of MOR7785) VH: QVQLVQSGAEVKKPGSSVKVSCKASGGTFSSYAISWVRQAPGQGLEWMGSIIPWFGWTNYAQKFQGRVTITADESTSTAYMELSSLRSEDTAVYYCARDSEYYFDHWGQGTLVTVSS VL: DIQMTQSPSSVSASVGDRVTITCRASQGISNWLNWYQQKPGKAPKLLIYAASSLQSGVPSRFSGSGSGTDFTLTISSLQPEDFATYYCQQYSDDPTFGQGTKVEIKG — what was its IL-8 production (NHDF), IC50?
0.374

Request the reported IL-8 production (NHDF), IC50 associated with mAb732 (antibody, human IgG1, lambda, V domains shown, Framework-engineered mAb; also called engineered form of MOR7775) VH: QVQLQQSGPGLVKPSQTLSLTCAISGDSVSSSSAAWGWIRQSPSRGLEWLGRISYRSKWYNDYAVSVKSRITINPDTSKNQFSLQLNSVTPEDTAVYYCAREVDSMYYSYFDIWGQGTLVTVSS VL: EIVLTQSPATLSLSPGERATLSCRASQNVWAFYLAWYQQKPGQAPRLLIYGASNRATGIPARFSGSGSGTDFTLTISSLEPEDFAVYYCTQYYSSPSLTFGQGTKVEIKG
12.5
